assay: Moisture absorption/desorption test; assay type: physicochemical; details: relative humidity 95%, 25° C.
Measure name: Weight change ratio, Adsorption (%)

Worked examples follow.
# Compound, Weight change ratio, Adsorption (%)
measured = [
    ("C=CC(=O)N1CCC[C@@H](n2nc(C(=O)Nc3nc4ccccc4o3)c3c(N)ncnc32)C1.O=C(O)/C=C/C(=O)O [monofumarate of Compound A]", 0.60),
    ("C=CC(=O)N1CCC[C@@H](n2nc(C(=O)Nc3nc4ccccc4o3)c3c(N)ncnc32)C1.C=CC(=O)N1CCC[C@@H](n2nc(C(=O)Nc3nc4ccccc4o3)c3c(N)ncnc32)C1.O=C(O)C(O)C(O)C(=O)O [hemitartrate of Compound A]", 3.31),
]

1 = C=CC(=O)N1CCC[C@@H](n2nc(C(=O)Nc3nc4ccccc4o3)c3c(N)ncnc32)C1
2 = C=CC(=O)N1CCC[C@@H](n2nc(C(=O)Nc3nc4ccccc4o3)c3c(N)ncnc32)C1.O=P(O)(O)O [monophosphate of Compound A]
3 = C=CC(=O)N1CCC[C@@H](n2nc(C(=O)Nc3nc4ccccc4o3)c3c(N)ncnc32)C1.C=CC(=O)N1CCC[C@@H](n2nc(C(=O)Nc3nc4ccccc4o3)c3c(N)ncnc32)C1.O=C(O)/C=C/C(=O)O [hemifumarate of Compound A]
Asked: Sort these compounds on Weight change ratio, Adsorption so the largest reading comes first. Returns: the labels listed in the requested order.
Given back: 2, 1, 3
(2: 17.90%, 1: 4.39%, 3: 0.81%)

* * *

assay: Moisture absorption/desorption test; type: physicochemical; conditions: relative humidity 20%, 25° C.
Measure name: Weight change ratio, Adsorption (%)

# Compound, Weight change ratio, Adsorption [%]
rows = [
    ("C=CC(=O)N1CCC[C@@H](n2nc(C(=O)Nc3nc4ccccc4o3)c3c(N)ncnc32)C1.O=P(O)(O)O [monophosphate of Compound A]", 0.19),
]

a = C=CC(=O)N1CCC[C@@H](n2nc(C(=O)Nc3nc4ccccc4o3)c3c(N)ncnc32)C1.C=CC(=O)N1CCC[C@@H](n2nc(C(=O)Nc3nc4ccccc4o3)c3c(N)ncnc32)C1.O=C(O)C(O)C(O)C(=O)O [hemitartrate of Compound A]
b = C=CC(=O)N1CCC[C@@H](n2nc(C(=O)Nc3nc4ccccc4o3)c3c(N)ncnc32)C1.C=CC(=O)N1CCC[C@@H](n2nc(C(=O)Nc3nc4ccccc4o3)c3c(N)ncnc32)C1.O=C(O)/C=C/C(=O)O [hemifumarate of Compound A]
c = C=CC(=O)N1CCC[C@@H](n2nc(C(=O)Nc3nc4ccccc4o3)c3c(N)ncnc32)C1.O=C(O)/C=C/C(=O)O [monofumarate of Compound A]
d = C=CC(=O)N1CCC[C@@H](n2nc(C(=O)Nc3nc4ccccc4o3)c3c(N)ncnc32)C1
Asked: Sort these compounds on Weight change ratio, Adsorption so the largest reading comes first. Returns: the labels listed in the requested order.
Given back: d, a, c, b

* * *

molecular target: recombinant human BTK protein (Homo sapiens (Human)); assay: Measurement of BTK inhibitory activity (in vitro); conditions: ATP 45 μM, FL-Peptide 2 substrate
Sequence (Q06187 whole entry): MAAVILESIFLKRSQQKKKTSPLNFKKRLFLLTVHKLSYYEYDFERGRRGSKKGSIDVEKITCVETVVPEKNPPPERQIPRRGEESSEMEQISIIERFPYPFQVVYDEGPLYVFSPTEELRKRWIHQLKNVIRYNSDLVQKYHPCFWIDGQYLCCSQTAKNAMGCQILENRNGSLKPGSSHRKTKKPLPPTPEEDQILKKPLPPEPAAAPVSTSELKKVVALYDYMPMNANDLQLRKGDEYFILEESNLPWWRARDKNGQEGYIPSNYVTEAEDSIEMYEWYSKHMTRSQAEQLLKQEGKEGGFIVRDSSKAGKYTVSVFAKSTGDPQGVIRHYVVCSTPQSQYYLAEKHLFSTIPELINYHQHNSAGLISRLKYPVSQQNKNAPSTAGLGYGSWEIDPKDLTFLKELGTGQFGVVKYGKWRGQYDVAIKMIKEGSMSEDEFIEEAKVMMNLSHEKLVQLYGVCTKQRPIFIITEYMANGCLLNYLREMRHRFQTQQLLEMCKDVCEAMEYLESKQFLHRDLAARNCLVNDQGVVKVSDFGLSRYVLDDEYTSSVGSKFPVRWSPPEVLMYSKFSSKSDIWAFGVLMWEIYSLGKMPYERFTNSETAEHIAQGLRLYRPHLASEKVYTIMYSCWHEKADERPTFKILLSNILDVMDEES
Measure name: pIC50
In textbook form, pIC50 equals minus log to base ten of the concentration in mol/L.

Asked: // pIC50 lookup, key: C=CC(=O)N1CCC[C@@H](n2nc(C(=O)Nc3nc4ccccc4o3)c3c(N)ncnc32)C1.O=C(O)/C=C/C(=O)O [monofumarate of Compound A]
Given back: 8.92

# credit: patent US10280174B2
